Tested On: TCPTP (Homo sapiens)
Sequence (P17706 1-415): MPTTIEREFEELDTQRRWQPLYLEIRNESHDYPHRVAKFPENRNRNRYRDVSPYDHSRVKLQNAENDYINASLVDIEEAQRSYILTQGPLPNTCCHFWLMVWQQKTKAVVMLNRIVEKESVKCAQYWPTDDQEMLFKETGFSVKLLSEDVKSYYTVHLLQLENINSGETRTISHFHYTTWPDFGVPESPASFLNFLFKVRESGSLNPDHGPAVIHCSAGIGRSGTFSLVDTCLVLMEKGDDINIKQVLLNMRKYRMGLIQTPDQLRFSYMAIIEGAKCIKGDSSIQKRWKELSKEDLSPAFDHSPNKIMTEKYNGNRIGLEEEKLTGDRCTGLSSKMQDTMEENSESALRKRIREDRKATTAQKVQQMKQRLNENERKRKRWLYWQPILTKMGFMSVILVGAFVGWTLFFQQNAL
Test Name: Inhibition of protein tyrosine phosphatase (PTPs) assay, pNPP substrate: TCPTP
Assay type: biochemical
Endpoint Name: pIC50
Quick note: pIC50 values are minus log10 of concentrations in mol/L.

For the compound COc1cc(O)c2c(=O)oc3cc(O)cc(C)c3c2c1 , give its reported pIC50.
3.68

For the compound Cc1cc(O)cc2oc(=O)c3c(O)cc(O)cc3c12 , give its reported pIC50.
4.52
